- PROTOCOL NOTES: activity coefficient (dimensionless); of the first substance listed, at infinite dilution; xn = mol fraction of the nth substance listed
- CONDITION DETAILS: 343.25 K; 101.33 kPa; Liquid; Chromatography; x1 = 0
QUANTITY MEASURED: activity coefficient
One number for each entry.

In the examples that follow, each entry is paired with its recorded activity coefficient.
In [3]: df
Out[3]:
                            compound     quantity_measured  recorded_measurement
0  CCCOC(C)=O [propyl ethanoate] + O  activity coefficient                   348
1      CCOC(C)=O [ethyl acetate] + O  activity coefficient                  96.2
2                  CCO [ethanol] + O  activity coefficient                  5.96

Here is the next item to consider.
Task: Look up activity coefficient: COC(C)=O [methyl ethanoate] + O
Output: 31.6

###

- PROTOCOL NOTES: activity coefficient (dimensionless); of the first substance listed, at infinite dilution; xn = mol fraction of the nth substance listed
- CONDITION DETAILS: 313.25 K; 101.33 kPa; Liquid; Chromatography; x1 = 0
Decide using activity coefficient: a value greater than or equal to 80 is yes, a smaller one is no.

>>> df
                                   compound  class
0             COC=O [methyl methanoate] + O     no
1              CCCC(C)=O [pentan-2-one] + O    yes
2                    c1ccccc1 [benzene] + O    yes
3             CCOC(C)=O [ethyl acetate] + O    yes
4  COC(C)(C)C [2-methoxy-2-methylpropane] + O    yes
5                     CC(C)=O [acetone] + O     no

Task: // inclusive: activity coefficient at least 80? input: COC(C)=O [methyl ethanoate] + O
Output: no

Task: Okay, and CC(C)OC(C)C [diisopropyl ether] + O ?
Output: yes

Task: Another: CCCOCCC [dipropyl ether] + O
Output: yes

Task: Okay, and CCOC=O [ethyl methanoate] + O ?
Output: no

Task: Again, but for CCC(C)(C)OC [2-methoxy-2-methylbutane] + O
Output: yes

Task: Field entry: Cc1ccccc1 [toluene] + O
Output: yes

Task: Next entry: CCO [ethanol] + O
Output: no

###

- PROTOCOL NOTES: activity coefficient (dimensionless); of the first substance listed, at infinite dilution; xn = mol fraction of the nth substance listed
- CONDITION DETAILS: 313.25 K; 101.33 kPa; Liquid; Chromatography; x1 = 0
Hi there, I'd appreciate the recorded activity coefficient for every entry that follows.
Numbers only.

Consider the following items and state reported activity coefficient for each.
1. CCC(C)=O [butanone] + O
2. CCOCC [diethyl ether] + O

Output:
1. 33.8
2. 113

Task: Reported activity coefficient, compound CCCOC(C)=O [propyl ethanoate] + O : ____
Output: 325

###

So I've got a bunch of molecules here, and I need their activity coefficient values.
- PROTOCOL NOTES: activity coefficient (dimensionless); of the first substance listed, at infinite dilution; xn = mol fraction of the nth substance listed
- CONDITION DETAILS: 303.25 K; 101.33 kPa; Liquid; Chromatography; x1 = 0

In [3]: df
Out[3]:
                              molecule  recorded_measurement
0    CCCOC(C)=O [propyl ethanoate] + O                   297
1        CCOC=O [ethyl methanoate] + O                  53.8
2      COC(C)=O [methyl ethanoate] + O                  26.2
3        COC=O [methyl methanoate] + O                  18.7
4                    CCO [ethanol] + O                  5.03
5  CC(C)OC(C)C [diisopropyl ether] + O                   737

Switching to the query record.
Task: Any idea what activity coefficient was measured for CCOCC [diethyl ether] + O ?
Output: 90.1
